Source: patent US5744621A

molecular target: HIV-1 protease (Human immunodeficiency virus type 1 group M subtype B, UniProt P04585); construct: 2.6 nM of HIV-1 protease; experiment: Assay for inhibitory effect on HIV protease (residual enzyme activity, HPLC of substrate cleavage); assay type: biochemical; settings: HIV-1 protease 2.6 nM, pH 5.5; rate constant of covalent bond formation; read-out: kina (converted)
// not satisfied strictly below 0.004 s⁻¹ in kinact; satisfied otherwise

Data request: Dear colleague, could you confirm whether NC(=O)C[C@H](NC(=O)[C@H](Cc1ccccc1)NC(=O)CCN1CCOCC1)C(=O)N[C@@H](Cc1ccccc1)[C@H]1O[C@H]1CCc1ccccc1 has kinact at or above 0.004 s⁻¹?
Data returned: satisfied

Data request: Dear colleague, could you confirm whether CC(C)[C@H](CCc1ccccc1)NC(=O)C[C@@H]1O[C@@H]1[C@H](Cc1ccccc1)NC(=O)[C@H](CC(N)=O)NC(=O)c1ccc2ccccc2n1 has kinact at or above 0.004 s⁻¹?
Data returned: satisfied

Data request: Dear colleague, could you confirm whether CC(C)[C@H](NC(=O)OCc1ccccc1)C(=O)N[C@@H](Cc1ccccc1)[C@H]1O[C@H]1CNC(=O)[C@H](CC(N)=O)NC(=O)OCc1ccccc1 has kinact at or above 0.004 s⁻¹?
Data returned: not satisfied

Data request: Dear colleague, could you confirm whether CC(C)[C@H](NC(=O)OCc1ccccc1)C(=O)NC[C@@H]1O[C@@H]1[C@H](CC1CCCCC1)NC(=O)[C@@H](NC(=O)OCc1ccccc1)C(C)C has kinact at or above 0.004 s⁻¹?
Data returned: not satisfied

Data request: Dear colleague, could you confirm whether NC(=O)C[C@H](NC(=O)COc1cccc2ccccc12)C(=O)N[C@@H](Cc1ccccc1)[C@H]1O[C@H]1CCc1ccccc1 has kinact at or above 0.004 s⁻¹?
Data returned: not satisfied

Data request: Dear colleague, could you confirm whether NC(=O)C[C@H](NC(=O)[C@H](Cc1ccccc1)NC(=O)OCc1ccccc1)C(=O)N[C@@H](Cc1ccccc1)[C@H]1O[C@H]1CCc1ccccc1 has kinact at or above 0.004 s⁻¹?
Data returned: not satisfied

Data request: Dear colleague, could you confirm whether NC(=O)C[C@H](NC(=O)c1cnc2ccccc2n1)C(=O)N[C@@H](Cc1ccccc1)[C@H]1O[C@H]1CCc1ccccc1 has kinact at or above 0.004 s⁻¹?
Data returned: satisfied

Data request: Dear colleague, could you confirm whether CC(C)[C@H](NC(=O)C[C@@H]1O[C@@H]1[C@H](Cc1ccccc1)NC(=O)[C@H](CC(N)=O)NC(=O)c1ccc2ccccc2n1)C(N)=O has kinact at or above 0.004 s⁻¹?
Data returned: not satisfied

Data request: Dear colleague, could you confirm whether CC[C@H](C)[C@H](NC(=O)C[C@@H]1O[C@@H]1[C@H](Cc1ccccc1)NC(=O)[C@H](CC(N)=O)NC(=O)c1ccc2ccccc2n1)C(=O)NC has kinact at or above 0.004 s⁻¹?
Data returned: not satisfied

Data request: Dear colleague, could you confirm whether CC[C@H](C)[C@H](NC(=O)C[C@@H]1O[C@@H]1[C@H](Cc1ccccc1)NC(=O)[C@H](CC(N)=O)NC(=O)c1ccc2ccccc2n1)C(=O)NCc1ccccn1 has kinact at or above 0.004 s⁻¹?
Data returned: not satisfied

Data request: Dear colleague, could you confirm whether CC[C@H](C)[C@H](NC(=O)C[C@@H]1O[C@@H]1[C@H](Cc1ccccc1)NC(=O)[C@H](CC(N)=O)NC(=O)c1ccc2ccccc2n1)C(=O)N[C@H](C(=O)OC)C(C)C has kinact at or above 0.004 s⁻¹?
Data returned: not satisfied
